This section presents molecules with their documented pIC50 values.
tested on: 134 cancer cell lines; experiment: Cell viability assay (ATPlite, 72 hours), IC50 on cancer cell line panel; details: Homo sapiens, K562, read-out: IC50 in cell proliferation assay, K-562 cell line
pIC50: −log10 of the molar value.

Here are 2 molecules together with their reported answers.
molecule="Cc1nc(NC(=O)N2CCC[C@H]2C(N)=O)sc1-c1ccnc(C(C)(C)C(F)(F)F)c1 [alpelisib]" target_system="134 cancer cell lines" outcome_measure=pIC50 reported_measurement="< 4.50"
molecule="CC(C)(C)c1nc(-c2cccc(NS(=O)(=O)c3c(F)cccc3F)c2F)c(-c2ccnc(N)n2)s1 [dabrafenib]" target_system="134 cancer cell lines" outcome_measure=pIC50 reported_measurement="< 5.00"

Tell me reported pIC50 for CCCS(=O)(=O)Nc1ccc(F)c(C(=O)c2c[nH]c3ncc(-c4ccc(Cl)cc4)cc23)c1F [vemurafenib] , tested with 134 cancer cell lines.
< 4.50

====

molecular target: panel of 255 wild-type kinases (Homo sapiens, UniProt P17252); experiment: Kinase panel profiling at 1 µmol/L (MSA or IMAP), percentage inhibition; assay type: biochemical; settings: kinase PKCα; 1 µmol/L single concentration; read-out: %-inhibition at 1 µmol/L, PKCα
OUTCOME MEASURE: inhibition at 1 µM
Please report the result as a number followed by the unit.

Here are 4 compounds together with their reported answers.
record_smiles=Cc1cc(Nc2ncnc3ccc(NC4=NC(C)(C)CO4)cc23)ccc1Oc1ccn2ncnc2c1 outcome_measure="inhibition at 1 µM" reported_measurement=5%
record_smiles=C=CC(=O)N1CCC([C@@H]2CCNc3c(C(N)=O)c(-c4ccc(Oc5ccccc5)cc4)nn32)CC1 outcome_measure="inhibition at 1 µM" reported_measurement=-2.63%
record_smiles=Cn1cc(-c2cc3c(N4CCN(c5ncc([C@@](C)(N)c6ccc(F)cc6)cn5)CC4)ncnn3c2)cn1 outcome_measure="inhibition at 1 µM" reported_measurement=5%
record_smiles=CCn1c(=O)c(-c2cc(NC(=O)Nc3ccccc3)c(F)cc2Br)cc2cnc(NC)cc21 outcome_measure="inhibition at 1 µM" reported_measurement=-1.85%

I would be grateful if you could share the reported inhibition at 1 µM for C[C@H]1Oc2cc(cnc2N)-c2c(nn(C)c2C#N)CN(C)C(=O)c2ccc(F)cc21 .
12%

Repeat for the following compound: CCN1C(=O)N(c2c(F)c(OC)cc(OC)c2F)Cc2cnc3[nH]c(CN4CCOCC4)cc3c21
-1.62%

====

biological target: UniProtKB P16234; test: Kinase panel profiling at 1 µmol/L (MSA or IMAP), percentage inhibition; format: biochemical; conditions: kinase PDGFRα; 1 µmol/L single concentration; read-out: %-inhibition at 1 µmol/L, PDGFRα
Sequence (P16234 24-1089): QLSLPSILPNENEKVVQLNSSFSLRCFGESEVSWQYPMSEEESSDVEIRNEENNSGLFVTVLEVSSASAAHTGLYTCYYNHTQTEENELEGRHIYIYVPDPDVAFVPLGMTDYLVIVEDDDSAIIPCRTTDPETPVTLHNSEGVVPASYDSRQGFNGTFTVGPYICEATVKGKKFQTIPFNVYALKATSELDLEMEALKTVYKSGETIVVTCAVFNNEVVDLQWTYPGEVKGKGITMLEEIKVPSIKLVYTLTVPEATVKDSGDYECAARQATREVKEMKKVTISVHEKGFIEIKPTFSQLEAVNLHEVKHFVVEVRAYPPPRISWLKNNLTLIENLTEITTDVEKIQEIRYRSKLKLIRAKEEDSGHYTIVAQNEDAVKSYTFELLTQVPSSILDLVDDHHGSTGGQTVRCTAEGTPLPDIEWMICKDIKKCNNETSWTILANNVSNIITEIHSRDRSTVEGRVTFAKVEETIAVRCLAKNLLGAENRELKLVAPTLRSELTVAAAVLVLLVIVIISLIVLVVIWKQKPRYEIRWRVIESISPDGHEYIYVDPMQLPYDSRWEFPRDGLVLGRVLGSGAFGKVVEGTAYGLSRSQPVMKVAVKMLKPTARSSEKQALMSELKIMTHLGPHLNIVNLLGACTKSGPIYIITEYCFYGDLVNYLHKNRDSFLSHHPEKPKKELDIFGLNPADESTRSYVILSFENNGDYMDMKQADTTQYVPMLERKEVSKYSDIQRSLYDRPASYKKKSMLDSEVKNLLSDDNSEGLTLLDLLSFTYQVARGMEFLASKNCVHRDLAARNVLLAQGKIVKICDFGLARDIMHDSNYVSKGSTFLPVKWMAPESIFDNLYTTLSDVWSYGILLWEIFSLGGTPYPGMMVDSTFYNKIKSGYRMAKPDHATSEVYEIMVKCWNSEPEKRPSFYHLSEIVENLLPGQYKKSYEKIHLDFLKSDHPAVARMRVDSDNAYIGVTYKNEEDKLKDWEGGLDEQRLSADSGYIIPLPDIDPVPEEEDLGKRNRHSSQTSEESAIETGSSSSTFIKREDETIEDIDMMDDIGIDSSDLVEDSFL
inhibition at 1 µM vs 80%: at or above is Satisfied, below is Not satisfied.

Does the reported inhibition at 1 µM for Cn1cnc2c(F)c(Nc3ccc(Br)cc3F)c(C(=O)NOCCO)cc21 fall at or above the 80% mark?
Not satisfied

Repeat for the following compound: CCc1nc(C(N)=O)c(Nc2ccc(N3CCC(N4CCN(C)CC4)CC3)c(OC)c2)nc1NC1CCOCC1
Satisfied

Repeat for the following compound: O=C(Nc1cnn2ccc(N3CCC[C@@H]3c3cc(F)ccc3F)nc12)N1CC[C@H](O)C1
Not satisfied

Repeat for the following compound: C=CC(=O)N1CCC([C@@H]2CCNc3c(C(N)=O)c(-c4ccc(Oc5ccccc5)cc4)nn32)CC1
Not satisfied

Repeat for the following compound: FC(F)(F)c1ccc(CNc2ccc(Cc3c[nH]c4ncc(Cl)cc34)cn2)cn1
Satisfied
